# testMethodNotes: Displacement of [3H]-biotin from Staphylococcus aureus BPL after 20 mins by scintillation counting
Recorded Ki, one value per entry.
endpointLabel: Ki

[[record]]
molecule = "O=C1N[C@H]2[C@H](CS[C@H]2CCCCCCO)N1"
result = "> 20 µM"

[[record]]
molecule = "NCCCCC[C@@H]1SC[C@@H]2NC(=O)N[C@@H]21"
result = "> 20 µM"

[[record]]
molecule = "NCCCC[C@@H]1SC[C@@H]2NC(=O)N[C@@H]21"
result = "> 20 µM"

